Reference source: patent US20260069689A1

Record form. Attribute: kon. Fill in for each entry.
Test Target: T1, SARS-CoV2 Spike ecto foldon Trimer expressed with a C-terminal myc-myc-hexahistidine (SARS-CoV-2, UniProt P0DTC2 14-1213)
T1 construct: extracellular domain
Assay Procedure: SPR Biacore, mAb captured by anti-hFc, 25C
Give bare numbers, in M⁻¹ s⁻¹.

Binder	Unit Info	Recorded Measurement
mAb14232 (antibody, V domains shown) VH: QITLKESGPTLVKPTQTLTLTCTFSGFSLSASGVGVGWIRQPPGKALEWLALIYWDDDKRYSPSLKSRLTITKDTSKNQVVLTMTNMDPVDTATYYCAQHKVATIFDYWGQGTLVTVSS VL: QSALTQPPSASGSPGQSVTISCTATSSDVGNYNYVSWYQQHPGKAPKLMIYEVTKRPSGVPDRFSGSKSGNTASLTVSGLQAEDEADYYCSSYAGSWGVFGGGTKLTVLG	M⁻¹ s⁻¹	763000

Below are some binders; for each one, tell me its kon.
1. mAb14315 (antibody, V domains shown) VH: QVQLVQSGAEVKKPGSSVKVSCKASGDTFSTYAINWVRQAPGQGLEWMGRFIHIFGTANYAQKFQGRVTITADESTSTAYMELRSLRSEDTAVYYCARDGVDYGDYRPDYWGQGTLVTVSS VL: EIVLTQSPGTLSLSPGERATLSCRASQSVSSNYLAWYQQKPGQAPRLLIYGASSRATGIPERFSGSGSGTDFTLTISRLEPEDFAVYYCQQYGSSLYTFGQGTKLEIKR
2. mAb15150 (antibody, V domains shown) VH: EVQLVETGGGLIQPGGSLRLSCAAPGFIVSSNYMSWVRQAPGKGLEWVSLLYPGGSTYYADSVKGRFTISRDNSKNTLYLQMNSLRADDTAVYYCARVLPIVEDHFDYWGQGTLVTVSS VL: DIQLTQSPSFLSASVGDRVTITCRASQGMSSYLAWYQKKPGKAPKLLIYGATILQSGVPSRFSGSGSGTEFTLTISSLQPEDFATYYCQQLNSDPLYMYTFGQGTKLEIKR

[652000, 317000]
